Below, each entry is listed alongside its reported activation at 1 µM.
molecular target: PKR wt (Homo sapiens, UniProt P30613); assay: PKR WT Single Point Percent Activation Assay; type: biochemical
Sequence (P30613 whole entry): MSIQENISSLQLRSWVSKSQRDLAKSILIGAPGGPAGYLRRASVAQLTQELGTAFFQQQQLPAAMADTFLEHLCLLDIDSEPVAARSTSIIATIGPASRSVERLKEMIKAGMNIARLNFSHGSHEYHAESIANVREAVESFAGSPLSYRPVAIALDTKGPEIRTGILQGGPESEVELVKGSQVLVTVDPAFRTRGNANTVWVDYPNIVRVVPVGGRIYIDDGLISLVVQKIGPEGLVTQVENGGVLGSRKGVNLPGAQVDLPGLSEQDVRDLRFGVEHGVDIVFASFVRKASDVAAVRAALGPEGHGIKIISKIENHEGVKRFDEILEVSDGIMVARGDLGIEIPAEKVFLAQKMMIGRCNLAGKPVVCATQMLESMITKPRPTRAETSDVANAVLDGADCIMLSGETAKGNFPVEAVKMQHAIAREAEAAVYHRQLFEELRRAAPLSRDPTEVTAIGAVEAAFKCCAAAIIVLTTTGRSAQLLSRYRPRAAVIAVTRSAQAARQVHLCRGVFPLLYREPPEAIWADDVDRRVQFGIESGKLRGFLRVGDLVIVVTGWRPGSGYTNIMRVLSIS

- molecule: "O=C(c1ccc(NS(=O)(=O)c2cccc3cccnc23)cc1)N1CCN(C[C@H]2CCOC2)CC1"
  activation at 1 µM: "101 to 500%"

Sample `COc1cccc(CN2CCN(C(=O)c3ccc(NS(=O)(=O)c4cccc5cccnc45)cc3)[C@H](C)C2)c1OC` — what was its activation at 1 µM?
101 to 500%

Also `COc1cccc(CN2CCN(C(=O)c3ccc(NS(=O)(=O)c4cccc5cccnc45)cc3)[C@@H](C)C2)c1OC` ?
101 to 500%

====

target: PKR R510Q (Homo sapiens, UniProt P30613, R510Q); experiment: PKR R510Q Single Point Percent Activation Assay; format: biochemical; conditions: read-out: Act. % 510Q
Sequence (P30613 whole entry R510Q): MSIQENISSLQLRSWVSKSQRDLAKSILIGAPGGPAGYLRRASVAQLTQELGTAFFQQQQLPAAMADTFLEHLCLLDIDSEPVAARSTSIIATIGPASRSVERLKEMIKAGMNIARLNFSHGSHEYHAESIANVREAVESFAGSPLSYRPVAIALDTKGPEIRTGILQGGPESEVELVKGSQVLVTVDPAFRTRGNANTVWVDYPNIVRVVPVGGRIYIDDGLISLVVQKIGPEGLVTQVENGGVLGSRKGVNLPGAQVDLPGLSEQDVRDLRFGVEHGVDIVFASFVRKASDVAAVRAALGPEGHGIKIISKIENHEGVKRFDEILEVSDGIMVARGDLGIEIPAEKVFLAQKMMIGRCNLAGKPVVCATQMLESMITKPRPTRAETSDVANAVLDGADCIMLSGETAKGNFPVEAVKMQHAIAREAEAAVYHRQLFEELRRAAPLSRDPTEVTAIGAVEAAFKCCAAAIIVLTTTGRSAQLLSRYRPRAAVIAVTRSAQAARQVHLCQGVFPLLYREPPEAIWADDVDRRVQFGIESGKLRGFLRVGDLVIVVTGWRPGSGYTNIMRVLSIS
readout_type: activation at 1 µM

Below are worked cases with known answers.
- compound: "CC(c1c(F)ccc(F)c1F)N1CCN(C(=O)c2ccc(NS(=O)(=O)c3cccc4cccnc34)cc2)[C@H](C)C1 (stereo partly shown)"
  activation at 1 µM: "1 to 100%"
- compound: "COc1cccc(CN2CCN(C(=O)c3ccc(NS(=O)(=O)c4cccc5cccnc45)cc3)[C@@H](C)C2)c1OC"
  activation at 1 µM: "1 to 100%"
- compound: "C[C@H]1CN(Cc2c(F)cc(F)cc2F)CCN1C(=O)c1ccc(NS(=O)(=O)c2cccc3cccnc23)cc1"
  activation at 1 µM: "1 to 100%"
- compound: "CC[C@H]1CN(C(C)c2cc(F)c(F)c(F)c2)CCN1C(=O)c1ccc(NS(=O)(=O)c2cccc3cccnc23)cc1 (stereo partly shown)"
  activation at 1 µM: "1 to 100%"
- compound: "C[C@@H]1CN(Cc2cc(F)c(F)c(F)c2)CCN1C(=O)c1ccc(NS(=O)(=O)c2cccc3cccnc23)cc1"
  activation at 1 µM: "101 to 500%"
- compound: "C[C@H]1CN(C(=O)O[C@@H]2CCOC2)CCN1C(=O)c1ccc(NS(=O)(=O)c2cccc3cccnc23)cc1"
  activation at 1 µM: "1 to 100%"
- compound: "COc1cccc(CN2CCN(C(=O)c3ccc(NS(=O)(=O)c4cccc5cccnc45)cc3)[C@H](C)C2)c1OC"
  activation at 1 µM: "1 to 100%"
- compound: "CC(c1ccccc1F)N1CCN(C(=O)c2ccc(NS(=O)(=O)c3cccc4cccnc34)cc2)[C@H](C)C1 (stereo partly shown)"
  activation at 1 µM: "1 to 100%"

Sample `C[C@@H]1CN(CC2CCCC2)CCN1C(=O)c1ccc(NS(=O)(=O)c2cccc3cccnc23)cc1` — what was its activation at 1 µM?
1 to 100%

Also `CC(C)OC(=O)N1CCN(C(=O)c2ccc(NS(=O)(=O)c3cccc4cccnc34)cc2)[C@H](C)C1` ?
101 to 500%

Also C[C@@H]1CN(CC2CCCO2)CCN1C(=O)c1ccc(NS(=O)(=O)c2cccc3cccnc23)cc1 (stereo partly shown) ?
101 to 500%

Also `C[C@H]1CN(Cc2ccc(Cl)c(F)c2)CCN1C(=O)c1ccc(NS(=O)(=O)c2cccc3cccnc23)cc1Cl` ?
1 to 100%

Also CC1CN(Cc2c(F)cc(F)cc2F)CC(C)N1C(=O)c1ccc(NS(=O)(=O)c2cccc3cccnc23)cc1 (stereo not shown) ?
101 to 500%

Also `C[C@H]1CN(Cc2ccc(Cl)c(F)c2)CCN1C(=O)c1ccc(NS(=O)(=O)c2cccc3cccnc23)cc1` ?
101 to 500%

Also `C[C@H]1CN(Cc2ccccc2)CCN1C(=O)c1ccc(NS(=O)(=O)c2cccc3cccnc23)cc1` ?
101 to 500%

Also `C[C@@H]1CN(C(=O)c2ccc(NS(=O)(=O)c3cccc4cccnc34)cc2)CCN1C(=O)c1ccccn1` ?
1 to 100%

Data origin: patent US9404081B2
